Biological target: T1, full-length 0N4R WT Tau (UniProt P10636-6 2-383, limits assumed)
T1 construct: mature; also called FL 0N4R WT Tau
T1 sequence (P10636 other isoform, or with tags, fused parts or gaps limits assumed): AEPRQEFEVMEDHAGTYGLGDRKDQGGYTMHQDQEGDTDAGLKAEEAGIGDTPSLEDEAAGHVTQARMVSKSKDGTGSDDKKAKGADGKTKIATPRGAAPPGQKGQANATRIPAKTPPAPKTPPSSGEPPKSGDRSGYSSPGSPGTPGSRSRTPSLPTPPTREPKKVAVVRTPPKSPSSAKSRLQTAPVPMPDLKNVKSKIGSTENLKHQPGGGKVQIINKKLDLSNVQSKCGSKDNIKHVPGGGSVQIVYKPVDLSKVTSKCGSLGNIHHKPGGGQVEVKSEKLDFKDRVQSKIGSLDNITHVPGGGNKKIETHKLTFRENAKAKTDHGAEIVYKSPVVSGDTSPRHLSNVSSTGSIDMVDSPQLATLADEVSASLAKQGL
Test: SPR, steady-state affinity fit (replicate 1 of 3); BIN1 SH3 domain as immobilised ligand, FL 0N4R WT Tau as analyte 0.6-75 µM, 25 °C, PBS-P+
assay-readout: Kd (nM)
Answer in nM, number only, no unit symbol.

q: So what does the record say about Kd for human BIN1 SH3 domain (untagged) (other, also called native BIN1 SH3 domain; the peptide) GRLDLPPGFMFKVQAQHDYTATDTDELQLKAGDVVLVIPFQNPEEQDEGWLMGVKESDWNQHKELEKCRGVFPENFTERVP ?
a: 1030
